# assay-overview: Metabolic stability in liver microsomes, HLM
# experimental-setup: 1 μM, NADPH
Where a name gives a salt, the structure may show the parent alone.
reported-metric: Metabolic stability HLM % remaining in 30 min (%)
Form entry: value (%) — number only.

compound: Nc1ccccc1NC(=O)c1cc2c(s1)CCN(C(=O)CNC1CC1c1ccc(F)cc1)C2 (stereo not drawn) [Example 151, TFA Salt]
quantitative-readout: 30

Recorded Metabolic stability HLM % remaining in 30 min for O=C(NO)c1ccc(CCCNC2CC2c2ccc(F)cc2)cc1 (stereo not drawn) [Example 30, TFA Salt] , please? 16

Recorded Metabolic stability HLM % remaining in 30 min for COc1ccc(C2CC2NCC2CCN(c3ncc(C(=O)NO)cn3)CC2)cc1 (stereo not drawn) [Example 18, TFA Salt] , please? 41

Recorded Metabolic stability HLM % remaining in 30 min for O=C(NO)c1ccc(CCCN2CCn3cc(CNC4CC4c4ccc(F)cc4)nc3C2)cc1 (stereo not drawn) [Example 72, TFA Salt] , please? 67

Recorded Metabolic stability HLM % remaining in 30 min for O=C(NO)c1cccc(CNC2CC2c2ccccc2)c1 (stereo not drawn) [Example 27, TFA] , please? 75

Recorded Metabolic stability HLM % remaining in 30 min for Cc1noc(C)c1-c1ccc(C2CC2NCC2CCN(Cc3ccc(C(=O)NO)cn3)CC2)cc1 (stereo not drawn) [Example 39, TFA Salt] , please? 87
